Tested on: OVCAR-3 ovarian
Assay: NCI-60 one-dose screen, 48 h
Settings: 10 µM unless noted
Compounds without any hit were thinned out: in the full panel of roughly 83,000, 20% have a hit. Calls of active or inactive are those of the source. The calls were made as follows: active = growth percent below 10; inactive = the rest.
Reply using exactly one outcome from active, inactive

// outcome(item) with item = `O=C(O)c1ccc(N=CC(=O)c2ccc(-c3ccccc3)cc2)cc1` inactive

// outcome(item) with item = `Cc1cn2c(/C=C3/C(=O)Nc4c3ccc3ccccc43)c(C(F)(F)F)nc2s1` active

// outcome(item) with item = `c1ccc(Cn2cc(-c3nc4ccccc4s3)c3cccnc32)cc1` inactive

// outcome(item) with item = CCN(CC)c1ccc2c(c1)Oc1nc(N)c(C#N)c(N)c1C2Sc1ccc(SC)cc1 (stereo not given) active

// outcome(item) with item = `N#CN1CC[C@H](C(=O)Nc2cc3cc(C(N)=O)ccc3cn2)C1` active

====

Test system: A549/ATCC NSCLC
Test: NCI-60 one-dose screen, 48 h
Settings: 10 µM unless noted
The panel holds about 83,000 compounds, 20% with a hit somewhere; the sample as a whole holds those more often. Activity calls are given as the source filed them. How the source made its calls: active means growth percent below 10; inactive means the rest.
Reply using exactly one outcome from 1.0 for active, 0.0 for inactive

// outcome(item) with item = `COc1cc(-c2nn(-c3ccc(C(=O)O)cc3)cc2C(=O)O)ccc1O` 0.0

// outcome(item) with item = `CCN(CC)c1ccc(/C=N\NC(=O)/C=C/C=C/c2ccc3c(c2)OCO3)c(O)c1` 0.0

// outcome(item) with item = `O=C(COc1ccc(/C=C2\COc3ccccc3C2=O)cc1)Nc1nccs1` 0.0

// outcome(item) with item = COc1cc(C2CC(=O)c3ccccc3N2)cc(OC)c1OC (stereo not given) 0.0

// outcome(item) with item = `Cc1cc(N[C@@H]2CCC[C@H](Nc3ccnc4cc(Cl)ccc34)C2)nc(N2CCCCCC2)n1` 1.0

// outcome(item) with item = `COc1cc(-c2nc3ccccc3[nH]2)ccc1OCC(=O)N=Nc1c(O)[nH]c2ccc(Cl)cc12` 0.0

// outcome(item) with item = `O=S(=O)(Nc1ccc(Cl)c(F)c1)c1ccc(-c2cnc(C3CC3)o2)cc1` 0.0

// outcome(item) with item = `COc1cccc(-c2nc(SCC(=O)Nc3ccc(C(=O)/C=C/c4ccc(OC)c(OC)c4)cc3)[nH]c(=O)c2C#N)c1` 0.0

// outcome(item) with item = `CN(C)c1ccc(NC(=O)c2ccc(/C=C/C(=O)c3ncc[nH]3)cc2)cc1` 0.0

// outcome(item) with item = `Cc1cc(C)nc(SC2=C(Nc3ccc(O)cc3)C(=O)N(Cc3ccccc3)C2=O)n1` 0.0

// outcome(item) with item = `O=C1CC(=NCC(=O)n2c(-c3ccccc3)nc3ccccc32)NN1` 0.0

// outcome(item) with item = `COc1ccc(/C=C\c2cc(OC)c(OC)c(OC)c2)cc1OCC(=O)Nc1ccc2nc(C)sc2c1` 0.0

// outcome(item) with item = `c1ccc(CCNc2ncnc3[nH]ncc23)cc1` 0.0

// outcome(item) with item = CCn1c(O)c(/C=N/NC(=O)C(C)c2ccc(CC(C)C)cc2)sc1=S (stereo not given) 0.0

// outcome(item) with item = `CNC(=O)c1cc(Oc2ccc(NC(=O)Nc3ccc(Cl)c(SC)c3)c(F)c2)ccn1` 0.0

// outcome(item) with item = `C=C1C(=O)O[C@H]2[C@H]1CC/C(C=Nc1ccc(C(F)(F)F)cc1N)=C\CC[C@@]1(C)O[C@@H]21` 0.0

// outcome(item) with item = `CSc1nc(NCc2ccccc2)c(C#N)c(-c2cccc([N+](=O)[O-])c2)n1` 0.0

// outcome(item) with item = `COc1cccc(-c2nc3sccn3c2-c2ccnc(NCCNS(=O)(=O)c3ccccc3)c2)c1` 0.0

// outcome(item) with item = `COc1cc(-c2nc3ccccc3[nH]2)ccc1OCc1nnc(-c2ccc(CC(C)C)cc2)o1` 0.0

// outcome(item) with item = `CCOC(=O)c1c(CN2CCN(C)CC2)nc2ccc(Cl)cc2c1-c1ccccc1` 0.0

// outcome(item) with item = `Cc1[nH]c(-c2cc(N)ccc2Cl)c2c1C(=O)CCCC2` 0.0

// outcome(item) with item = `CN(C)CCN1C(=O)c2cccc3c(N)ccc(c23)C1=O` 1.0

// outcome(item) with item = `COc1ccc(C(=S)N2CCN(c3cccc(Cl)c3)CC2)cc1` 0.0

// outcome(item) with item = `CC1(C)CC[C@]2(C(=O)Nc3ccccn3)CC[C@]3(C)C(=CC[C@@H]4[C@@]5(C)C/C(=C/c6cccnc6)C(=O)C(C)(C)[C@@H]5CC[C@]43C)[C@H]2C1` 0.0

// outcome(item) with item = `CC(=O)OC[C@H]1O[C@H](OC(C)=O)[C@H](NC(=O)/C=C/CCl)[C@@H](OC(C)=O)[C@@H]1OC(C)=O` 0.0

// outcome(item) with item = `O=C(C(=O)c1ccc2c(c1)OCO2)c1ccc2c(c1)OCO2` 0.0

// outcome(item) with item = `COc1ccc2[nH]cc(-c3noc(C(=O)c4cn(C)c5ccc(F)cc45)n3)c2c1` 0.0

// outcome(item) with item = `Cc1cc(C)nc(SC2=C(Nc3cccc(Cl)c3C)C(=O)N(Cc3ccccc3)C2=O)n1` 0.0

// outcome(item) with item = O=C1/C(=C/N2N=C(c3ccc4ccccc4c3)CC2c2ccccc2O)SC(=S)N1c1cccnc1 (stereo not given) 0.0

// outcome(item) with item = `O=C(Cn1cccc(Nc2ccccc2)c1=O)Nc1ccccc1` 0.0

// outcome(item) with item = CN(CCCCCl)P(=O)(OCc1ccc([N+](=O)[O-])o1)C(F)(F)c1ccc(CC(=O)NC[C@@H](O)/C=C\[C@@H](O)[C@H](CO)Cc2ccccc2)cc1 (stereo not given in full) 0.0

// outcome(item) with item = `O=[N+]([O-])c1ccc(Nc2nc(NCCN3CCOCC3)ncc2[N+](=O)[O-])cc1` 0.0

// outcome(item) with item = `N#Cc1nnn(-c2ccc(S(N)(=O)=O)cc2)c1NC(=O)CCl` 0.0

// outcome(item) with item = `Cn1cc(-c2nonc2-c2c[nH]c3ccc(F)cc23)c2cccnc21` 0.0

// outcome(item) with item = `COc1ccc(-c2nc3cc(C(=O)Nc4cc(OC)c(OC)c(OC)c4)ccc3n2C2CCCCC2)cc1` 0.0
